The following compounds are listed with their measured MIC against clinical VRE isolates (as a group) values.
- Tested on: vancomycin-resistant Enterococcus (VRE) clinical isolates
- protocol_description: Broth microdilution MIC, clinical VRE isolates
- Assay type: cell-based, E. faecium
- reported_conditions: 3 clinical VRE isolates
reported_metric: MIC against clinical VRE isolates (as a group) (µM)

Cc1ccc(C(C)C)cc1.F[P-](F)(F)(F)(F)F.O=C(OCC1OC(n2cc(-c3ccc4ccccc4n3)nn2)C(OC(=O)c2ccccc2)C(OC(=O)c2ccccc2)C1OC(=O)c1ccccc1)c1ccccc1.[Cl][Ru+] (mixture of isomers) ... 5
Cc1ccc(C(C)C)cc1.F[P-](F)(F)(F)(F)F.O=C(OCC1OC(n2cc(-c3ccc4ccccc4n3)nn2)C(OC(=O)c2ccccc2)C(OC(=O)c2ccccc2)C1OC(=O)c1ccccc1)c1ccccc1.[Cl][Os+] (mixture of isomers) ... 10

###

# MIC, Reference S. aureus annotations
- Tested on: Staphylococcus aureus (ATCC29213)
- protocol_description: Broth microdilution MIC, Staphylococcus aureus reference strain
- Format: cell-based
- reported_conditions: Staphylococcus aureus ATCC29213, 24 h
reported_metric: MIC, Reference S. aureus (µM)

Cc1ccc(C(C)C)cc1.F[P-](F)(F)(F)(F)F.O=C(OCC1OC(n2cc(-c3ccc4ccccc4n3)nn2)C(OC(=O)c2ccccc2)C(OC(=O)c2ccccc2)C1OC(=O)c1ccccc1)c1ccccc1.[Cl][Ru+] (mixture of isomers) [Ru-7] ... 10
Cc1ccc(C(C)C)cc1.F[P-](F)(F)(F)(F)F.O=C(OCC1OC(n2cc(-c3ccc4ccccc4n3)nn2)C(OC(=O)c2ccccc2)C(OC(=O)c2ccccc2)C1OC(=O)c1ccccc1)c1ccccc1.[Cl][Os+] (mixture of isomers) [Os-7] ... 20

###

Recorded measurements of MRSA isolates susceptible out of those tested, one per entry
- Test system: methicillin-resistant Staphylococcus aureus (MRSA) clinical isolates
- protocol_description: Broth microdilution MIC, clinical MRSA isolates
- Type: cell-based
- reported_conditions: 6 isolates tested, susceptible = MIC up to 40 µM
reported_metric: MRSA isolates susceptible out of those tested

CCCCCCC(=O)OCC1OC(n2cc(-c3ccccn3)nn2)C(OC(=O)CCCCCC)C(OC(=O)CCCCCC)C1OC(=O)CCCCCC.Cc1ccc(C(C)C)cc1.F[P-](F)(F)(F)(F)F.[Cl][Os+] (mixture of isomers) ... 0/6
CCCCCC(=O)OCC1OC(n2cc(-c3ccccn3)nn2)C(OC(=O)CCCCC)C(OC(=O)CCCCC)C1OC(=O)CCCCC.Cc1ccc(C(C)C)cc1.F[P-](F)(F)(F)(F)F.[Cl][Os+] (mixture of isomers) ... 1/6
CCCC(=O)OCC1OC(n2cc(-c3ccccn3)nn2)C(OC(=O)CCC)C(OC(=O)CCC)C1OC(=O)CCC.Cc1ccc(C(C)C)cc1.F[P-](F)(F)(F)(F)F.[Cl][Os+] (mixture of isomers) ... 6/6
CCCCC(=O)OCC1OC(n2cc(-c3ccccn3)nn2)C(OC(=O)CCCC)C(OC(=O)CCCC)C1OC(=O)CCCC.Cc1ccc(C(C)C)cc1.F[P-](F)(F)(F)(F)F.[Cl][Os+] (mixture of isomers) ... 6/6
Cc1ccc(C(C)C)cc1.F[P-](F)(F)(F)(F)F.O=C(OCC1OC(n2cc(-c3ccc4ccccc4n3)nn2)C(OC(=O)c2ccccc2)C(OC(=O)c2ccccc2)C1OC(=O)c1ccccc1)c1ccccc1.[Cl][Os+] (mixture of isomers) ... 1 out of the 6
CCCCCCCC(=O)OCC1OC(n2cc(-c3ccccn3)nn2)C(OC(=O)CCCCCCC)C(OC(=O)CCCCCCC)C1OC(=O)CCCCCCC.Cc1ccc(C(C)C)cc1.F[P-](F)(F)(F)(F)F.[Cl][Os+] (mixture of isomers) ... 0/6

Recorded values, source paper PMC9923724.
